# System: P388 leukemia ip, CD2F1 mice, survival T/C
# run-description: NCI In Vivo Anticancer Drug Screen. Data for tumor model P388 Leukemia (intraperitoneal) in CD2F1 (CDF1) mice
# details: endpoint: median survival time; dose: 100.0 mg/kg/injection; schedule: Q01DX005 (ip); vehicle: Klucel (hydroxypropylcellulose) (HPC); higher = longer survival
Toxic doses and inconclusive results are not listed.
Consider the following molecules; for each one, report its T/C.

Check out these entries, answers already filled in.
>  <molecule>
COc1ccc(Cc2cc3c(cc2OCC(=O)NN)OCO3)cc1

>  <T/C>
88 % of control

$$$$
>  <molecule>
Cn1c(C=O)cc2c(Cl)nccc21

>  <T/C>
103 % of control

$$$$
>  <molecule>
Nc1nc(C2CCCC2)cc(=O)[nH]1

>  <T/C>
105 % of control

$$$$

Would you be so kind as to report T/C for each listed record?
1. CCc1noc2cc(-c3ccccc3)n(C)c(=O)c12
2. CC(C)(C)OC(=O)N1CCCC1C(=O)O (stereo unspecified)
3. COc1cc(OC(=O)NCCCl)cc(OC)c1OC
4. COc1ccc(N/N=C(/c2ccccc2)c2noc(-c3ccccc3)n2)cc1
5. CC(C)=Cc1cc(CCC/C(C)=C/Cc2c(O)cc(C)c(C(=O)O)c2O)co1

Result:
1. 104 % of control
2. 106 % of control
3. 108 % of control
4. 94 % of control
5. 107 % of control

Would you be so kind as to report T/C for each listed record?
1. CCC(O)Cn1cnc2c(N)ncnc21 (stereo unspecified)
2. COC(=O)c1n[nH]n(Cc2cccs2)c1=O (tested in a mixture with another compound)
3. COc1ccc(C=NCCC[Si]23OCCN(CCO2)CCO3)c(OC)c1OC

Result:
99 % of control
103 % of control
94 % of control

###

# System: P388 leukemia ip, CD2F1 mice, survival T/C
# run-description: NCI In Vivo Anticancer Drug Screen. Data for tumor model P388 Leukemia (intraperitoneal) in CD2F1 (CDF1) mice
# details: endpoint: median survival time; dose: 240.0 mg/kg/injection; schedule: Q01DX005 (ip); vehicle: saline with Tween-80; higher = longer survival
Toxic doses and inconclusive results are not listed.
Consider the following molecules; for each one, report its T/C.

Check out these entries, answers already filled in.
>  <molecule>
CC1(C)OCC2CCC=C21 (stereo not given)

>  <T/C>
97 % of control

$$$$
>  <molecule>
CCOc1ccc(N=C2C=C(Nc3ccc(OCC)cc3)C(=Nc3ccc(OCC)cc3)C=C2Nc2ccc(OCC)cc2)cc1

>  <T/C>
92 % of control

$$$$
>  <molecule>
Nc1ccccc1C(=O)/C=C/c1ccccc1

>  <T/C>
100 % of control

$$$$
>  <molecule>
Cc1cnc(N/N=C/c2c(CO)cnc(C)c2O)s1

>  <T/C>
112 % of control

$$$$

Would you be so kind as to report T/C for each listed record?
1. COc1ccc2nc(C)c3c(c2c1)C(=O)N(CCC[N+]1([O-])CC[N+]([O-])(CCCN2C(=O)c4c(c5cc(OC)ccc5[n+]([O-])c4C)C2=O)CC1)C3=O (stereo not given)
2. COc1ccc(C2CC(CO)ON2c2ccccc2)cc1 (stereo not given)
3. CC(C)(C)N1OC2(c3ccccc3)OC3N(C(C)(C)C)OC4(c5ccccc5)OC1C2(c1ccccc1)C34c1ccccc1 (stereo not given)
4. Cc1ccc(N2CC(O)CN(c3ccc(C)cc3)CC(O)C2)cc1 (stereo not given)
5. NS(=O)(=O)c1ccc(NC(=O)C2C(=O)N(c3ccc(S(N)(=O)=O)cc3)C(=O)/C2=N/O)cc1 (stereo not given)

Result:
92 % of control
99 % of control
86 % of control
94 % of control
101 % of control

Would you be so kind as to report T/C for each listed record?
1. CNC(=S)C(N)CCCC1NC(=S)N(C)C1=O (stereo not given)
2. CCOC(=O)NC1CC2c3ccccc3C1c1ccccc12 (stereo not given)
3. COc1ccc2c(N3CCN(C(=O)C(Cl)(Cl)Cl)CC3)cc(C)nc2c1
4. Cc1nn(-c2ccccc2)nc1C(=O)Nc1ccc2[nH]ncc2c1
5. CN1NC(c2ccccc2)=C(C#N)C(=O)CC1c1ccccc1 (stereo not given)
6. C1=C2NNC(c3ccccc3)=C(c3ccccc3)C2=CCC1 (tested in a mixture with another compound)
7. COc1cc(C2C3=C(CCCC3=O)Oc3cc4c(cc32)OCO4)cc(OC)c1OC (stereo not given)
8. CCCCc1c(OS(=O)(=O)c2ccc(C)cc2)c(C#N)c2[nH]c3ccccc3n2c1=O

Result:
88 % of control
107 % of control
102 % of control
86 % of control
104 % of control
91 % of control
98 % of control
89 % of control

Would you be so kind as to report T/C for each listed record?
1. CC(=O)Nc1ccccc1OC(=O)NC(C)(C)C
2. CC1=CC(C)=NC2NNC(=O)C12 (stereo not given)

Result:
1: 90 % of control; 2: 105 % of control

###

# Test system: P388 leukemia ip, CD2F1 mice, survival T/C
# run-description: NCI In Vivo Anticancer Drug Screen. Data for tumor model P388 Leukemia (intraperitoneal) in CD2F1 (CDF1) mice
# details: endpoint: median survival time; dose: 400.0 mg/kg/injection; schedule: Q01DX009 (ip); vehicle: saline with Tween-80; higher = longer survival
# Protocol: The antitumor activity of compounds was measured in mice bearing transplantable tumors. Survival or tumor size were measured and the results are expressed as the measurement made in the treated group (T) divided by the measurement made in the vehicle treated control group (C). The tumor model used in this assay is P388 Leukemia (intraperitoneal) in CD2F1 (CDF1) mice
Toxic doses and inconclusive results are not listed.
Consider the following compounds; for each one, report its T/C.

>  <compound>
CC(=Nc1ccccc1)c1ccc2ccccc2c1

>  <T/C>
90 % of control

$$$$
>  <compound>
CCOC1OCN(c2ccccc2)CC1(C)C (stereo not drawn)

>  <T/C>
117 % of control

$$$$

In the following, a different compound is considered.
Briefly, T/C measured for Nc1ccc(S(=O)(=O)c2ccc(NCNc3ccc(S(=O)(=O)c4ccc(N)cc4)cc3)cc2)cc1 : 94 % of control

###

Consider the following compounds; for each one, report its T/C.
# System: P388 leukemia ip, CD2F1 mice, survival T/C
# run-description: NCI In Vivo Anticancer Drug Screen. Data for tumor model P388 Leukemia (intraperitoneal) in CD2F1 (CDF1) mice
# details: endpoint: median survival time; dose: 120.0 mg/kg/injection; schedule: Q01DX005 (ip); vehicle: saline with Tween-80; higher = longer survival
Inconclusive results and toxic doses are left out.

>  <compound>
O=C1NC(=O)C2C3CCC(O3)C12 (stereo not drawn)

>  <measured>
100 % of control

$$$$

Would you be so kind as to report T/C for each listed record?
1. CCN(CC)CCn1ncc(Sc2cc([N+](=O)[O-])ccc2N)c(Cl)c1=O
2. O=C(NCCCl)N1CCC(CN=c2cc3n(-c4ccc(Cl)cc4)c4ccccc4nc-3cc2Nc2ccc(Cl)cc2)CC1

Result:
89 % of control
94 % of control

Would you be so kind as to report T/C for each listed record?
1. COc1ccc2n[se]nc2c1
2. COC(=O)[C@@H]1CON(Cc2ccccc2)C1CC1(C)OCCO1 (stereo partly drawn)
3. O=C(O)[C@H](Cc1ccccc1)N1C(=O)N[C@@H](Cc2ccccc2)C1=O
4. CCc1cccc(C)c1NC(=O)CCC(=O)OC
5. NC1=C(O)C(=O)C(c2cccc3ccccc23)O1 (stereo not drawn)

Result:
["93 % of control", "104 % of control", "104 % of control", "97 % of control", "93 % of control"]

###

Consider the following molecules; for each one, report its T/C.
# Test system: P388 leukemia ip, CD2F1 mice, survival T/C
# run-description: NCI In Vivo Anticancer Drug Screen. Data for tumor model P388 Leukemia (intraperitoneal) in CD2F1 (CDF1) mice
# details: endpoint: median survival time; dose: 60.0 mg/kg/injection; schedule: Q01DX005 (ip); vehicle: saline with Tween-80; higher = longer survival
Toxic doses and inconclusive results are not listed.

>  <molecule>
CC1CCC2C(C)(C)C3CC12CC1OC13C (centres undefined)

>  <parameter-measured>
T/C

>  <measured>
100 % of control

$$$$

Would you be so kind as to report T/C for each listed record?
1. NC1=C(O)C(=O)C(c2cccc3ccccc23)O1 (centres undefined)
2. S=C(SCc1c(Cl)cccc1Cl)N1CCSCC1
3. NCCCn1[nH]c(=O)c2cccnc2c1=O
4. CC(C)(O)c1cc2nc3ccccc3nc2n1CCO

Result:
98 % of control
102 % of control
101 % of control
109 % of control

Would you be so kind as to report T/C for each listed record?
1. COc1cc(C(c2cc3c(cc2O)OCO3)N2CCOCC2)cc(OC)c1OC (centres undefined)
2. CCC1=NO[C@@H](C(=O)OCc2ccccc2)[C@H]1C
3. C[C@H]1C(=O)OCN1S(=O)(=O)C(C)(C)C
4. CC(=O)Nc1[nH]ncc1C#N
5. COc1ccc2nc(C#N)sc2c1
6. O=C1CC2COc3ccccc3C2=NN1c1ccccc1 (centres undefined)
7. Oc1ccc(Br)cc1C(c1ccc2c(c1)OCO2)N1CCOCC1 (centres undefined)
8. O=C(Cn1ccnc1)N1CCN(c2ccccc2)CC1

Result:
["107 % of control", "113 % of control", "101 % of control", "98 % of control", "86 % of control", "105 % of control", "100 % of control", "100 % of control"]
